Experiment Notes: activity coefficient (dimensionless); of the first substance listed, at infinite dilution; xn = mol fraction of the nth substance listed
Condition Label: 333.15 K; 101 kPa; Liquid; Chromatography; x1 = 0
For each of the compounds below, state its activity coefficient.
In your answer, state the number alone without any accompanying words.

Value of measured activity coefficient for the entry Cc1ccccc1 [toluene] + CCn1cc[n+](C)c1.N#C[B-](C#N)(C#N)C#N : 1.71

Value of measured activity coefficient for the entry c1ccsc1 [thiophene] + CCn1cc[n+](C)c1.N#C[B-](C#N)(C#N)C#N : 0.957

Value of measured activity coefficient for the entry CC1CCCCC1 [methylcyclohexane] + CCn1cc[n+](C)c1.N#C[B-](C#N)(C#N)C#N : 18.4

Value of measured activity coefficient for the entry CC(C)O [propan-2-ol] + CCn1cc[n+](C)c1.N#C[B-](C#N)(C#N)C#N : 1.43

Value of measured activity coefficient for the entry CCOC(C)=O [ethyl acetate] + CCn1cc[n+](C)c1.N#C[B-](C#N)(C#N)C#N : 1.02

Value of measured activity coefficient for the entry C=CCCCCCC [oct-1-ene] + CCn1cc[n+](C)c1.N#C[B-](C#N)(C#N)C#N : 26.1

Value of measured activity coefficient for the entry CC(C)=O [acetone] + CCn1cc[n+](C)c1.N#C[B-](C#N)(C#N)C#N : 0.454

Value of measured activity coefficient for the entry C1CCCCC1 [cyclohexane] + CCn1cc[n+](C)c1.N#C[B-](C#N)(C#N)C#N : 12.5

Value of measured activity coefficient for the entry CCO [ethanol] + CCn1cc[n+](C)c1.N#C[B-](C#N)(C#N)C#N : 1.15

* * *

For each of the compounds below, state its activity coefficient.
Experiment Notes: activity coefficient (dimensionless); of the first substance listed, at infinite dilution; xn = mol fraction of the nth substance listed
Condition Label: 323.15 K; 101 kPa; Liquid; Chromatography; x1 = 0
In your answer, state the number alone without any accompanying words.

Value of measured activity coefficient for the entry CCCCCCCC [octane] + CCn1cc[n+](C)c1.N#C[B-](C#N)(C#N)C#N : 61.2

Value of measured activity coefficient for the entry COC(=O)OC [dimethyl carbonate] + CCn1cc[n+](C)c1.N#C[B-](C#N)(C#N)C#N : 0.535

Value of measured activity coefficient for the entry CC(C)OC(C)C [diisopropyl ether] + CCn1cc[n+](C)c1.N#C[B-](C#N)(C#N)C#N : 7.08

Value of measured activity coefficient for the entry COCCOC [1,2-dimethoxyethane] + CCn1cc[n+](C)c1.N#C[B-](C#N)(C#N)C#N : 0.47

Value of measured activity coefficient for the entry C=CCCCCCC [oct-1-ene] + CCn1cc[n+](C)c1.N#C[B-](C#N)(C#N)C#N : 27.8

Value of measured activity coefficient for the entry CCc1ccccc1 [ethylbenzene] + CCn1cc[n+](C)c1.N#C[B-](C#N)(C#N)C#N : 2.61

Value of measured activity coefficient for the entry COC(C)=O [methyl ethanoate] + CCn1cc[n+](C)c1.N#C[B-](C#N)(C#N)C#N : 0.662

Value of measured activity coefficient for the entry CCOC(C)=O [ethyl acetate] + CCn1cc[n+](C)c1.N#C[B-](C#N)(C#N)C#N : 1

Value of measured activity coefficient for the entry C1CCCCC1 [cyclohexane] + CCn1cc[n+](C)c1.N#C[B-](C#N)(C#N)C#N : 13.4

Value of measured activity coefficient for the entry ClC(Cl)Cl [trichloromethane] + CCn1cc[n+](C)c1.N#C[B-](C#N)(C#N)C#N : 0.829

Value of measured activity coefficient for the entry CCCCCCC [heptane] + CCn1cc[n+](C)c1.N#C[B-](C#N)(C#N)C#N : 40.7

Value of measured activity coefficient for the entry c1ccccc1 [benzene] + CCn1cc[n+](C)c1.N#C[B-](C#N)(C#N)C#N : 1.15

Value of measured activity coefficient for the entry c1ccsc1 [thiophene] + CCn1cc[n+](C)c1.N#C[B-](C#N)(C#N)C#N : 0.947

Value of measured activity coefficient for the entry COC(C)(C)C [2-methoxy-2-methylpropane] + CCn1cc[n+](C)c1.N#C[B-](C#N)(C#N)C#N : 2.8

Value of measured activity coefficient for the entry C1CCOC1 [tetrahydrofuran] + CCn1cc[n+](C)c1.N#C[B-](C#N)(C#N)C#N : 0.709

Value of measured activity coefficient for the entry CC1CCCCC1 [methylcyclohexane] + CCn1cc[n+](C)c1.N#C[B-](C#N)(C#N)C#N : 19.7

Value of measured activity coefficient for the entry Cc1ccccc1 [toluene] + CCn1cc[n+](C)c1.N#C[B-](C#N)(C#N)C#N : 1.69

Where do these numbers come from? They come from the NIST ThermoML archive (doi:10.1016/j.jct.2011.09.028).
